- Target Desc: human NTCP (Homo sapiens, UniProt Q14973)
- Sequence (Q14973 1-349): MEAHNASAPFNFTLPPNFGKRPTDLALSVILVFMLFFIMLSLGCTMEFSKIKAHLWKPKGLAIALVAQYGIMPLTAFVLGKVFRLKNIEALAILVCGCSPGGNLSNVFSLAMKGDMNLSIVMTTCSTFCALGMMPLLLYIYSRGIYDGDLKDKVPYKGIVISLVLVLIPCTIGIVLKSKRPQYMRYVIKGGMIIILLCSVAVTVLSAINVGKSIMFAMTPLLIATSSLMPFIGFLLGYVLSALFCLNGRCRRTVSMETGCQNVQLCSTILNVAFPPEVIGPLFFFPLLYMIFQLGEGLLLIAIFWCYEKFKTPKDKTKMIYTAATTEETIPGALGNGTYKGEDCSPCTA
- Assay Procedure: Screening taurocholate uptake assay (96-well, [14C]taurocholate, 10 µM drug)
- Conditions: screening taurocholate uptake, 10 µM drug
Where a name gives a salt, the structure may show the parent alone.
Quantity: B-score functional assay

INSERT INTO results (compound, target_desc, observed) VALUES
  ('Cn1c(=O)c2[nH]cnc2n(C)c1=O', 'human NTCP (Homo sapiens, UniProt Q14973)', -0.16),
  ('CC[C@H](C)[C@H]1O[C@]2(CC[C@@H]1C)C[C@@H]1C[C@@H](C/C=C(\C)[C@@H](O[C@H]3C[C@H](OC)[C@@H](O[C@H]4C[C@H](OC)[C@@H](O)[C@H](C)O4)[C@H](C)O3)[C@@H](C)/C=C/C=C3\CO[C@@H]4[C@H](O)C(C)=C[C@@H](C(=O)O1)[C@]34O)O2', 'human NTCP (Homo sapiens, UniProt Q14973)', -2.693),
  ('COC(=O)[C@@H]1[C@H]2C[C@H]3c4[nH]c5ccccc5c4CCN3C[C@@H]2CC[C@@H]1O [Yohimbine hydrochloride]', 'human NTCP (Homo sapiens, UniProt Q14973)', -1.965),
  ('CN1[C@@H]2CC(OC(=O)[C@H](CO)c3ccccc3)C[C@H]1[C@@H]1O[C@@H]12.Cl (stereo partly shown) [Scopolamine hydrochloride]', 'human NTCP (Homo sapiens, UniProt Q14973)', 0.343),
  ('Cc1cc(O)c(C(=O)N[C@@H](C(=O)N[C@@H]2C(=O)N3C(C(=O)O)=C(CSc4nnnn4C)CS[C@H]23)c2ccc(O)cc2)cn1 [Cefpiramide]', 'human NTCP (Homo sapiens, UniProt Q14973)', -1.403),
  ('CCN(C(C)=O)c1cccc(-c2ccnc3c(C#N)cnn23)c1', 'human NTCP (Homo sapiens, UniProt Q14973)', 1.229),
  ('COc1ccc(-c2ccc(=N)n(CCCC(=O)O)n2)cc1 [Gabazine bromide]', 'human NTCP (Homo sapiens, UniProt Q14973)', -0.231),
  ('CNC(=O)Oc1ccc2c(c1)[C@]1(C)CCN(C)[C@@H]1N2C [Eserine hemisulfate salt]', 'human NTCP (Homo sapiens, UniProt Q14973)', -0.074),
  ('CC=CC(=O)N(CC)c1ccccc1C (mixture of isomers)', 'human NTCP (Homo sapiens, UniProt Q14973)', -0.004),
  ('O=C(Nc1cccc2c(=O)cc(-c3nnn[nH]3)oc12)c1ccc(OCCCCc2ccccc2)cc1', 'human NTCP (Homo sapiens, UniProt Q14973)', -8.959),
  ('CO[C@@]1(NC(=O)CSCC#N)C(=O)N2C(C(=O)O)=C(CSc3nnnn3C)CS[C@@H]21 [Cefmetazole sodium salt]', 'human NTCP (Homo sapiens, UniProt Q14973)', -1.174),
  ('CC[C@H](C)[C@H]1O[C@]2(C=C[C@@H]1C)C[C@@H]1C[C@@H](C/C=C(\C)[C@@H](O[C@H]3C[C@H](OC)[C@@H](O[C@H]4C[C@H](OC)[C@@H](O)[C@H](C)O4)[C@H](C)O3)[C@@H](C)/C=C/C=C3\CO[C@@H]4[C@H](O)C(C)=C[C@@H](C(=O)O1)[C@]34O)O2', 'human NTCP (Homo sapiens, UniProt Q14973)', -1.314),
  ('CCCc1nc(C)c2c(=O)[nH]c(-c3cc(S(=O)(=O)N4CCN(CC)CC4)ccc3OCC)nn12', 'human NTCP (Homo sapiens, UniProt Q14973)', -0.039);

---

- Target Desc: human NTCP (Homo sapiens, UniProt Q14973)
- Assay Procedure: Taurocholate uptake inhibition studies in U2OS-HA-hNTCP cells
- Format: cell-based
- Parameters: HA; expressed in transfected cells
Quantity: IC50 (µM)

INSERT INTO results (compound, observed) VALUES
  ('CN(CCOc1ccc(CC2SC(=O)NC2=O)cc1)c1ccccn1 (stereo not shown) [Rosiglitazone]', 5.1);

---

- Target Desc: human NTCP (Homo sapiens)
- Sequence (Q14973 1-349): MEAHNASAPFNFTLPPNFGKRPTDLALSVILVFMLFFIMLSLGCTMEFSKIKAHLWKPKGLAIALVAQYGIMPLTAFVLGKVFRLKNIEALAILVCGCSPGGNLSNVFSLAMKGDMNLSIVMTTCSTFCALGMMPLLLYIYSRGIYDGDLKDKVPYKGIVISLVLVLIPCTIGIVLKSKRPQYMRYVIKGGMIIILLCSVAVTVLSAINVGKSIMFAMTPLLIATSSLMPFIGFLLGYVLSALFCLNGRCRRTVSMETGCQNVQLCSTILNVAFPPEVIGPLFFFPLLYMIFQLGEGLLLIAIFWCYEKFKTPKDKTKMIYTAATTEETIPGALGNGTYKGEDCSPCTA
- Assay Procedure: Screening taurocholate uptake assay (96-well, [14C]taurocholate, 10 µM drug)
- Conditions: screen, 10 µM drug, taurocholate uptake
Where a name gives a salt, the structure may show the parent alone.
Binary label based on B-score functional assay with cut-off -1: below gives fulfilled, not below gives not fulfilled.

INSERT INTO measurements (molecule, classification) VALUES
  ('Cn1c([N+](=O)[O-])cnc1COC(N)=O', 'not fulfilled'),
  ('OCc1cc(C(O)CNCCCCCCOCCCCc2ccccc2)ccc1O (stereo not drawn)', 'not fulfilled'),
  ('CN(C)CCN(Cc1ccc(Cl)cc1)c1ccccn1.Cl [Chloropyramine hydrochloride]', 'fulfilled'),
  ('CC(C)c1c(CN(C)C(C)Cc2ccccc2)n(C)n(-c2ccccc2)c1=O (stereo not drawn)', 'not fulfilled'),
  ('COC(=O)Nc1nc2ccc(C(=O)c3cccs3)cc2[nH]1', 'fulfilled'),
  ('CCCCCCNC(=O)n1cc(F)c(=O)[nH]c1=O', 'fulfilled'),
  ('CN(C)CCOC(c1ccc(Cl)cc1)c1ccccn1.O=C(O)/C=C\C(=O)O (stereo not drawn) [Carbinoxamine maleate salt]', 'not fulfilled'),
  ('COCCc1ccc(OCC(O)CNC(C)C)cc1.COCCc1ccc(OCC(O)CNC(C)C)cc1.O=C(O)C(O)C(O)C(=O)O (racemic) [Metoprolol-(+,-) (+)-tartrate salt]', 'not fulfilled'),
  ('Clc1ccc2nsnc2c1NC1=NCCN1 [Tizanidine HCl]', 'not fulfilled');

---

Readings of B-score functional assay for the listed compounds
- Target Desc: human NTCP (Homo sapiens, UniProt Q14973)
- Assay Procedure: Screening taurocholate uptake assay (96-well, [14C]taurocholate, 10 µM drug)
- Conditions: Prestwick library screen, 10 µM drug; B-score of taurocholate uptake
Where a name gives a salt, the structure may show the parent alone.
Quantity: B-score functional assay

INSERT INTO measurements (compound, observed) VALUES
  ('COc1cc2c(cc1OC)C(C)NCC2.Cl (stereo not drawn)', 2.498),
  ('O=c1[nH]c(=O)n([C@H]2C[C@H](O)[C@@H](CO)O2)cc1C(F)(F)F [Trifluridine]', 0.173),
  ('CN1CCC(=C2c3ccccc3CCc3cccnc32)CC1 [Azatadine maleate]', 0.678),
  ('CN1C(=O)OC(C)(C)C1=O [Trimethadione]', 1.466),
  ('CCCC(CCC)C(=O)O [Valproic acid]', 0.92),
  ('Cl.c1cnc(N2CCN(Cc3ccc4c(c3)OCO4)CC2)nc1 [Piribedil hydrochloride]', 0.676),
  ('Cl.O=C(OCC(O)CO)c1ccccc1Nc1ccnc2cc(Cl)ccc12 (stereo not drawn) [Glafenine hydrochloride]', 0.341),
  ('CC(C)(Oc1ccc(Cl)cc1)C(=O)O [Clofibric acid]', 1.224),
  ('CN1[C@@H]2CC[C@H]1C[C@@H](OC1c3ccccc3CCc3ccccc31)C2.O=C(O)CC(O)(CC(=O)O)C(=O)O [Deptropine citrate]', 0.947),
  ('CC(C)C(=O)c1c(C(C)C)nn2ccccc12 [Ibudilast]', 0.276),
  ('CC[N+]1(C)CCCC(OC(=O)C(O)(c2ccccc2)c2ccccc2)C1 (stereo not drawn) [Pipenzolate bromide]', 2.623),
  ('CCCCOC(=O)c1ccc(N)cc1 [Butamben]', 0.768),
  ('Cn1c(=O)c2c(ncn2CC(=O)O)n(C)c1=O [Acefylline]', 0.41),
  ('Nc1ccc(S(=O)(=O)Nc2ccnn2-c2ccccc2)cc1 [Sulfaphenazole]', 0.483),
  ('O=C(N/N=C/c1ccc([N+](=O)[O-])o1)c1ccc(O)cc1 [Nifuroxazide]', 2.774),
  ('CN1C(C)(C)CCCC1(C)C [Pempidine tartrate]', 1.102),
  ('CCN(CC)CCOCCOC(=O)C1(c2ccccc2)CCCC1 [Carbetapentane citrate]', 0.114),
  ('Cc1cnc(C(=O)O)c[n+]1[O-] [Acipimox]', 0.91),
  ('C[C@@H](O)[C@H]1C(=O)N2C(C(=O)O)=C(S[C@@H]3CN[C@H](C(=O)N(C)C)C3)[C@H](C)[C@H]12 [Meropenem]', 0.4),
  ('Nc1ccn([C@@H]2O[C@H](CO)[C@@H](O)[C@@H]2O)c(=O)n1 [Cytarabine]', 0.582),
  ('C[C@H]1[C@H](NC(=O)/C(=N\OC(C)(C)C(=O)O)c2csc(N)n2)C(=O)N1S(=O)(=O)O [Aztreonam]', 1.332),
  ('NS(=O)(=O)c1cc2c(cc1Cl)N=CNS2(=O)=O [Chlorothiazide]', 1.41),
  ('NCC[C@H](O)C(=O)N[C@@H]1C[C@H](N)[C@@H](O[C@H]2O[C@H](CN)[C@@H](O)[C@H](O)[C@H]2O)[C@H](O)[C@H]1O[C@H]1O[C@H](CO)[C@@H](O)[C@H](N)[C@H]1O [Amikacin hydrate]', 1.395),
  ('CN(Cc1ccc(C(C)(C)C)cc1)Cc1cccc2ccccc12 [Butenafine Hydrochloride]', 1.115),
  ('CCN1C(=O)NC(c2ccccc2)C1=O (stereo not drawn) [Ethotoin]', 3.216),
  ('Cl.Clc1ccc(C(OCCN2CCCCC2)c2ccccc2)cc1 (stereo not drawn) [Cloperastine hydrochloride]', 2.21),
  ('CC(C[N+](C)(C)C)OC(N)=O (stereo not drawn) [Bethanechol chloride]', 1.898),
  ('COc1ccc2[nH]cc(CCNC(C)=O)c2c1 [Melatonin]', 0.509),
  ('CCn1cc(C(=O)O)c(=O)c2cc(F)c(N3CCNCC3)nc21 [Enoxacin]', 3.277),
  ('COC(=O)CCc1ccc(OCC(O)CNC(C)C)cc1 (stereo not drawn) [Esmolol hydrochloride]', 0.736),
  ('C[N+]12CCC(CC1)C(OC(=O)C(O)(c1ccccc1)c1ccccc1)C2 (stereo not drawn) [Clidinium bromide]', 0.121),
  ('O=C(O)/C=C\C(=O)O.O=C(O)/C=C\C(=O)O.c1ccc2nc(N3CCNCC3)ccc2c1 [Quipazine dimaleate salt]', 0.305),
  ('O=S(=O)(O)c1cc(O)ccc1O [Ethamsylate]', 0.032),
  ('c1ccc2c(c1)CCCC2C1=NCCN1 (stereo not drawn) [Tetrahydrozoline hydrochloride]', 0.112),
  ('CC(Cc1cccc(C(F)(F)F)c1)NCCOC(=O)c1ccccc1 (stereo not drawn) [Benfluorex]', 0.848),
  ('Cc1scc2c1N(C(=O)CN1CCN(C)CC1)c1ccccc1NC2=O [Telenzepine dihydrochloride]', 0.592);
